# assayed.system: C481S mutant BTK [BTK(C481S)] (Homo sapiens (Human), UniProt Q06187, C481S)
# Sequence (Q06187 whole entry C481S): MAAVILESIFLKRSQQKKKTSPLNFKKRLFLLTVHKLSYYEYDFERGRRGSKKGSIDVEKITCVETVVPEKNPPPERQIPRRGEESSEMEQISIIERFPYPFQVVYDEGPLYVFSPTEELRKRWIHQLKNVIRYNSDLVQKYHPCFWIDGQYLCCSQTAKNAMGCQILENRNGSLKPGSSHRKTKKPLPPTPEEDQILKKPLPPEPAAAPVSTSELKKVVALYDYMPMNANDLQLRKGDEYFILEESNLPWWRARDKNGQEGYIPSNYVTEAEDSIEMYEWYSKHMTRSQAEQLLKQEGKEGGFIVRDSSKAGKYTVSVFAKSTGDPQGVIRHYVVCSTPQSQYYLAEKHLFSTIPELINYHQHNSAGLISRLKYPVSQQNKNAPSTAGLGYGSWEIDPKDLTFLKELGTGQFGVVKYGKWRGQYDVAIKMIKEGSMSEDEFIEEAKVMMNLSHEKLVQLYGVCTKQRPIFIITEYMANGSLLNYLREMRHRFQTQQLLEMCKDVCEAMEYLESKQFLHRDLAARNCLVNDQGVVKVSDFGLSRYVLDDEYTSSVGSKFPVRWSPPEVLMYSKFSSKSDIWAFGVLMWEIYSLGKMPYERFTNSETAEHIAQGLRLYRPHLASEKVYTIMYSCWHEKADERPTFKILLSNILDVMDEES
# method: C481S Mutant BTK Inhibitory Activity Test (mobility shift assay)
# Assay type: biochemical
# condition: IC50[BTK(C481S)]/IC50[BTK(WT)]
property.label: C481S mutation-resistance

• CN(C)Cc1ccc(-c2cc3c(-c4cccc(-n5ccc6cc(C7CC7)cc(F)c6c5=O)c4CO)nc(N)nc3[nH]2)cc1 = 1.8

(1) Nc1nc(-c2cccc(-n3ccc4cc(C5CC5)cc(F)c4c3=O)c2CO)c2cc(-c3ccc(CN4CCCCC4)cc3)[nH]c2n1
(2) Nc1nc(-c2cccc(-n3ccc4cc(C5CC5)cc(F)c4c3=O)c2CO)c2cc(C3=CCS(=O)(=O)CC3)[nH]c2n1
Param metric = C481S mutation-resistance; output whichever of 1 , 2 has the minimum value. # answer = label of selected item
1
